tested on: α-smooth muscle actin (aSMA) positive LL29 cells; test: Inhibition of the fibrotic process: αSMA staining in TGF-β1 treated LL29 fibroblasts from IPF patients; settings: Homo sapiens, Fibroblast, 96 h
Quantity: pEC50
Conceptually, pEC50 converts a concentration in mol/L into minus its log10.

Compound | System | Endpoint Result
Cn1cc(-c2ccc3cnc(NC(=O)C4CCN(S(C)(=O)=O)CC4)cc3n2)cn1 | α-smooth muscle actin (aSMA) positive LL29 cells | 6.38
Nc1cncc(-c2cc3cc(NC(=O)c4ccc(OC5CCNCC5)cc4)ncc3cn2)c1 | α-smooth muscle actin (aSMA) positive LL29 cells | 5.60

Which pEC50 value belongs to CN1CCC(n2cc(C(=O)Nc3cc4cc(-c5cncc6[nH]ccc56)cnc4cn3)cn2)CC1 ?
5.50

Any idea what pEC50 was measured for CN1CCC(N(C)c2cc(C(=O)Nc3ncc4ccc(-c5cn(C)nn5)cc4n3)ccn2)CC1 ?
5.10

Which pEC50 reading was recorded for the compound CN1CCN(c2cc(C(=O)Nc3ncc4ccc(-c5cnn(C)c5)cc4n3)ccn2)CC1 ?
5.63

So what does the record say about pEC50 for CC(C)CN1CCC(C(=O)Nc2ncc3ccc(-c4cnn(C)c4)cc3n2)CC1 ?
5.56

Tell me the measured pEC50 of CC(C)Oc1ccc(C(=O)Nc2cc3nc(-c4cnc5n4CCNC5)ccc3cn2)cc1 , please.
5.79

May I ask what pEC50 has been recorded for O=C(Nc1ncc2ccc(-c3cncc(N[C@H]4CCNC[C@@H]4F)n3)cc2n1)C1CC1 ?
5.40

Report pEC50 for Cn1cc(-c2ccc3cnc(NC(=O)CC4CNCCO4)cc3n2)cn1 (centres unmarked) please.
5.72
